- assay details: Saltiness rating of toothpaste samples by an expert panel
- Type: in vivo
- condition notes: saltiness scale of 1 (less salty) to 7 (most salty); 7 evaluators; cooling material at 0.2 % (table) in commercial toothpaste with approximately 50% by weight sodium bicarbonate; Control 6.43
Label YES when Average RATING (saltiness) < 6; otherwise NO.

compound: CCNC(=O)C1CC(C)CCC1C(C)C (centres unmarked) [reference compound]
label: NO

compound: CC(O)CC(=O)O[C@@H]1C[C@H](C)CC[C@H]1C(C)C (stereo partly drawn) [L-menthyl-3-hydroxybutanoate]
label: YES

compound: CC1CCC(C(C)C)C(OC(=O)C(C)O)C1 (centres unmarked) [Menthyl Lactate, reference compound]
label: NO

compound: COc1ccc(NC(=O)C2CC(C)CCC2C(C)C)cc1 (centres unmarked)
label: YES

input: Check if Average RATING (saltiness) falls below 6 for C=C(C)[C@@H]1CC[C@@H](C)C[C@H]1O [1-isopulegol, reference compound] .
output: NO

input: Given the entry CCOC(=O)CNC(=O)C1CC(C)CCC1C(C)C (centres unmarked) [reference compound] , would its reported Average RATING (saltiness) be below 6?
output: NO

input: Check if Average RATING (saltiness) falls below 6 for CC(C)[C@@H]1CC[C@@H](C)C[C@H]1OCC(O)CO (some centres unmarked) .
output: YES

input: State whether 6 exceeds Average RATING (saltiness) recorded for CC1CCC(C(C)C)C(OCCO)C1 (centres unmarked) [hydroxyethyl-menthyl ether] .
output: YES

input: Below 6 on Average RATING (saltiness)? Entry CC(=O)C1CCC(C)CC1O (centres unmarked)
output: YES
